System: A549-TP53BP1-CLTA
measurementNotes: phenotypically active (imaging signature differs from DMSO and reproducible) at any of 0.3-9 uM (binary (1 = active, 0 = inactive)); higher = active
measurementConditions: treatment time: 24 h
Pick one and only one: active, inactive

compound	groupLabel
O=C(Nc1cc(C(F)(F)F)cc(C(F)(F)F)c1)c1cnc(Cl)nc1C(F)(F)F	inactive

## Task What is the recorded call for this compound in the test? "CC[C@@H](N)CNc1ccnc(-c2cc(-c3cnn(C)c3)ccc2O)n1"
## Result active

## Task Queued: Cn1c(=O)c2nc[nH]c2n(C)c1=O [theophylline]
## Result inactive

## Task Queued: CCOC(=O)Nc1cc(-c2ccc(C)c(NS(C)(=O)=O)c2)nn2c(C)nnc12 [Bromosporine]
## Result active

## Task Queued: "Cc1c[nH]c2nccc(Oc3c(F)cc(Nc4cc(Cl)nc(N)n4)cc3F)c12"
## Result active

* * *

Tested on: A549-TP53BP1-CLTA
measurementNotes: lowest phenotypically active concentration; higher = less potent
measurementConditions: treatment time: 24 h
Structures can show the parent of a compound that is named as a salt.
Below, each entry is listed alongside its reported lowest phenotypically active concentration.

Field: example entries. Status: answers known.
molecule	recordedValue
Nc1nccc2c1ncn2[C@@H]1C=C(CO)[C@@H](O)[C@H]1O [3-Deazaneplanocin A hydrochloride]	≤ 0.3 µM
CNC(=O)Nc1ccc(-c2nc(N3CC4CCC(C3)O4)c3cnn(C4CCC5(CC4)OCCO5)c3n2)cc1	≤ 0.3 µM
CCN1CCN(C(c2cccnc2)c2cc(Cl)c3cccnc3c2O)CC1 (stereo not drawn)	3 µM
COc1cc2ncnc(Nc3cccc(Br)c3)c2cc1OC	≤ 0.3 µM
Cc1nc(NC(=O)N2CCC[C@H]2C(N)=O)sc1-c1csc(C(C)(C)C)n1	9 µM

## Task Requested read-out: lowest phenotypically active concentration. Entry: CON(C)C(=O)N1N=C(c2cc(F)ccc2F)S[C@@]1(CCCN)c1ccccc1 [ARRY 520 trifluoroacetate]
## Result ≤ 0.3 µM

## Task Queued: "CC[C@]1(O)C[C@@H]2CN(CCc3c([nH]c4ccccc34)[C@@](C(=O)OC)(c3cc4c(cc3OC)N(C=O)[C@H]3[C@@](O)(C(=O)OC)[C@H](OC(C)=O)[C@]5(CC)C=CCN6CC[C@]43[C@@H]65)C2)C1"
## Result ≤ 0.3 µM

## Task Queued: Cc1cc(Nc2cc(C)c(C#N)c(NC(C)CCCC(C)(C)O)n2)n[nH]1 (stereo not drawn) [TC-A 2317 hydrochloride]
## Result 1 µM

* * *

Tested on: A549-TUBA1B-RELA
measurementNotes: lowest phenotypically active concentration; higher = less potent
measurementConditions: treatment time: 24 h
resultType: lowest phenotypically active concentration (µM)
Could you give me the number in µM? Just the number is fine.

smilesText	recordedValue
Fc1ccc([C@@H]2CCNC[C@H]2COc2ccc3c(c2)OCO3)cc1	3
Nc1ncn([C@@H]2O[C@H](CO)[C@@H](O)[C@H]2O)c(=O)n1	9
Cc1c(C(=O)N2CCOc3ccc(-c4ccc(N)nc4)cc3C2)ccc(S(C)(=O)=O)c1F	1

## Task Requested read-out: lowest phenotypically active concentration. Entry: "CCCCc1oc2ccccc2c1C(=O)c1cc(I)c(OCCN(CC)CC)c(I)c1"
## Result 3

## Task Queued: "COCCCC/C(=N/OCCN)c1ccc(C(F)(F)F)cc1"
## Result 9

## Task Queued: "COc1cc2c(cc1OCCCN1CCCC1)N=C(N)C21CCC1"
## Result 9

* * *

Test system: WPMY1-ACTB-RAB5A
measurementNotes: phenotypically active (imaging signature differs from DMSO and reproducible) at any of 0.3-9 uM (binary (1 = active, 0 = inactive)); higher = active
measurementConditions: treatment time: 24 h
resultType: phenotypically active
Keep the answer to the number alone.

Field: example entries. Status: answers known.
compound	recordedValue
Cc1ccc(-n2sc3ccccc3c2=O)cc1	1
CN1CCC(CN2c3ccccc3Sc3ccccc32)C1 (stereo not given)	1
Nc1ncnc2c1nc(Cl)n2C1O[C@H](CO)[C@@H](O)[C@H]1O (stereo not given in full)	1
CS(=O)(=O)c1ccc(-c2nnc(/C=C/c3nnc(-c4ccc(C#N)cc4)o3)n2-c2ccccc2Cl)nc1	0

## Task Requested read-out: phenotypically active. Entry: "Clc1ccc2c(c1)C(N1CCNCC1)=Nc1ccccc1O2"
## Result 1

* * *

Tested on: A549-GM130-SQSTM1
measurementNotes: phenotypically active (imaging signature differs from DMSO and reproducible) at any of 0.3-9 uM (binary (1 = active, 0 = inactive)); higher = active
measurementConditions: treatment time: 24 h
Below, each entry is listed alongside its reported phenotypically active.

molecule	recordedValue
CC[N+](CC)(CC)CCOc1cccc(OCC[N+](CC)(CC)CC)c1OCC[N+](CC)(CC)CC [gallamine-triethiodide]	0 (inactive)

## Task Requested read-out: phenotypically active. Entry: "CCCCOc1cc(C(=O)NCCN(CC)CC)c2ccccc2n1"
## Result 1 (active)

## Task Queued: "CCCCCCCCCCNCCSSCc1ccc(Cl)cc1"
## Result 1 (active)

## Task Queued: "O=C(O)C[C@H](O)C[C@H](O)/C=C/c1c(C2CC2)nc2ccccc2c1-c1ccc(F)cc1"
## Result 1 (active)

## Task Queued: CCCC(=O)O [Sodium butyrate]
## Result 0 (inactive)

* * *

System: WPMY1-GM130-SQSTM1
measurementNotes: lowest phenotypically active concentration; higher = less potent
measurementConditions: treatment time: 24 h
resultType: lowest phenotypically active concentration (µM)
Could you give me the number in µM? Just the number is fine.

smilesText	recordedValue
O=C(NCCCNc1nc(Nc2cccc(NC(=O)N3CCCC3)c2)ncc1I)c1cccs1	3
Cc1c(C(=O)N2CCOc3ccc(-c4ccc(N)nc4)cc3C2)ccc(S(C)(=O)=O)c1F	3

## Task Requested read-out: lowest phenotypically active concentration. Entry: "O=c1cc(-c2ccc(O)cc2)oc2cc(O)cc(O)c12"
## Result 9

* * *

Tested on: A549-CANX-COX4
measurementNotes: lowest phenotypically active concentration; higher = less potent
measurementConditions: treatment time: 24 h
Structures can show the parent of a compound that is named as a salt.
Below, each entry is listed alongside its reported lowest phenotypically active concentration.
Could you give me the number in µM? Just the number is fine.

Field: example entries. Status: answers known.
compound	readingUnit	recordedValue
O=c1[nH]cc(F)c(=O)[nH]1	µM	3
Oc1ccc(Nc2nc(-c3ccc(Cl)cc3)cs2)cc1	µM	3
CC(C)C(=O)SCCCCCCC(=O)Nc1nc(-c2ccccc2)cs1	µM	1
Nc1nccc(-c2ccc3noc(-c4ccc(Cl)cc4)c3c2)n1	µM	9
CCCC1(CCC)CCC2(CCN(CCCN(CC)CC)C2)CC1 [Atiprimod dihydrochloride]	µM	3
Nc1ncnc2[nH]nc(Nc3ccc(F)cc3)c12	µM	9

## Task Short answer please: lowest phenotypically active concentration, A549-CANX-COX4, entry S=C(S)N1CCCC1 [Pyrrolidinedithiocarbamate ammonium]
## Result 3

## Task Queued: "C[C@@H](CN1CCC(n2c(=O)[nH]c3cc(Cl)ccc32)CC1)NC(=O)c1ccc2ccccc2c1"
## Result 9

## Task Queued: "O=c1c(-c2ccc(O)cc2)coc2cc(O[C@@H]3O[C@H](CO)[C@@H](O)[C@H](O)[C@H]3O)cc(O)c12"
## Result 9

## Task Queued: "Nc1cccc(-c2cc3c(Oc4cccc(O)c4)ncnc3[nH]2)c1"
## Result 1

* * *

System: HepG2-ACTB-RAB5A
measurementNotes: phenotypically active (imaging signature differs from DMSO and reproducible) at any of 0.3-9 uM (binary (1 = active, 0 = inactive)); higher = active
measurementConditions: treatment time: 24 h
Pick one and only one: True (active), False (inactive)

Use these answered entries as a reference point.
compound	testSystem	groupLabel
CC1(COc2ccc(CC3SC(=O)NC3=O)cc2)CCCCC1 (stereo not given)	HepG2-ACTB-RAB5A	False
Nc1nc(OCC2CCCCC2)c2nc[nH]c2n1	HepG2-ACTB-RAB5A	False
Cc1cccc(Nc2cc(Cl)nc(SCC(=O)O)n2)c1C	HepG2-ACTB-RAB5A	False
N=C(N)Nc1nc(CSCCC(=N)NS(N)(=O)=O)cs1	HepG2-ACTB-RAB5A	False
COCCCC/C(=N/OCCN)c1ccc(C(F)(F)F)cc1	HepG2-ACTB-RAB5A	False

## Task What is the recorded call for this compound in the test? "C[C@H]1Oc2cc(cnc2N)-c2c(nn(C)c2C#N)CN(C)C(=O)c2ccc(F)cc21"
## Result True

## Task Queued: "Cc1c(NC(=O)OC[C@@H]2COCCN2)cn2ncnc(Nc3ccc4c(cnn4Cc4cccc(F)c4)c3)c12"
## Result True

## Task Queued: "C=C1C[C@]23C[C@@]1(O)CC[C@H]2[C@@]12C=C[C@H](O)[C@](C)(C(=O)O1)[C@H]2[C@@H]3C(=O)O"
## Result False

## Task Queued: "C/C(=C/c1ccc(C(=O)O)cc1)c1ccc2c(c1)C(C)(C)CCC2(C)C"
## Result False

## Task Queued: Cc1c(OCC(F)(F)F)ccnc1CS(=O)c1nc2ccccc2[nH]1 (stereo not given)
## Result False

FYI, the data here is from the supplement of paper PMC7411054.
